- Test system: Plasmodium berghei
- assay.info: Luciferase/luciferin-expressing antifolate-resistant parasites were used to infect a culture of HepG2 cells that were pre-incubated with compounds. Infected hepatocytes emit light due to the luciferase reaction. Assay results are presented as the percent inhibition of light emission compared to control. […]
- Type: functional
- particulars: sporozoite, HEPG2TOX_HILL_SLOPE 2.43, HEPG2TOX_R_SQUARED 0.913, read-out: LUCIFERASE INFECTION ASSAY - IC50
assay.readout: IC50

Ask: Item O=C(Nc1ccccc1)Nc1cc(NC(=O)Nc2ccccc2)cc(C(F)(F)F)c1 has what recorded IC50?
Reply: > 7.96 µM

---

- System: Plasmodium berghei
- assay.info: Luciferase/luciferin-expressing antifolate-resistant parasites were used to infect a culture of HepG2 cells that were pre-incubated with compounds. Infected hepatocytes emit light due to the luciferase reaction. Assay results are presented as the percent inhibition of light emission compared to control. […]
- Format: functional
- particulars: sporozoite, read-out: LUCIFERASE INFECTION ASSAY - IC50
assay.readout: IC50

Ask: Item COc1cc(OC)c2c(-c3ccccc3)cc(SCC(=O)N(C)C3CCS(=O)(=O)C3)nc2c1 (stereo not given) has what recorded IC50?
Reply: > 10 µM

Ask: Item COC(=O)c1cccnc1Nc1ccc(NS(=O)(=O)c2ccc(F)c(F)c2)cc1 has what recorded IC50?
Reply: > 10 µM

Ask: Item CCc1cc(Cl)n2nc(C(=O)OC)nc2n1 has what recorded IC50?
Reply: > 10 µM

Ask: Item CCSc1ccc(-c2cc(NC=O)c3ncc(-c4cccc(C(=O)NCCN(C)C)c4)n3c2)cc1 has what recorded IC50?
Reply: > 6.77 µM

Ask: Item COc1cc(NC(=O)N2Cc3cnc(Nc4ccc(OCc5ccccc5)cc4)nc3C2)cc(OC)c1OC has what recorded IC50?
Reply: > 6.25 µM

Ask: Item O=C(CN1CCC(n2c(=O)[nH]c3ccccc32)CC1)NCCC1=CCCCC1 has what recorded IC50?
Reply: > 10 µM

Ask: Item c1ccc(-c2ncc(CSc3ncnc4sccc34)s2)cc1 has what recorded IC50?
Reply: > 10 µM

Ask: Item COc1ccc(-c2nc(C(=O)NC3CCCC3)cc3c2[nH]c2ccccc23)cc1 has what recorded IC50?
Reply: 8.53 µM

Ask: Item CC(OC(=O)c1ccc(C(C)C)cc1)C(=O)Nc1sccc1C(N)=O (stereo not given) has what recorded IC50?
Reply: > 10 µM

Ask: Item Fc1ccc(-c2csc3ncnc(Sc4nnc(NC5CC5)s4)c23)cc1 has what recorded IC50?
Reply: > 10 µM

---

- Test system: Plasmodium berghei
- assay.info: Luciferase/luciferin-expressing antifolate-resistant parasites were used to infect a culture of HepG2 cells that were pre-incubated with compounds. Infected hepatocytes emit light due to the luciferase reaction. Assay results are presented as the percent inhibition of light emission compared to control. […]
- Format: functional
- particulars: sporozoite, PBLUC_HILL_SLOPE 21.9, PBLUC_R_SQUARED 0.538, read-out: LUCIFERASE INFECTION ASSAY - IC50
assay.readout: pIC50
Scale: negative log10 of molar concentration, which is what pIC50 denotes.

Ask: Missing value: pIC50, Plasmodium berghei, entry COc1ccc(-c2cnc3cnc(-c4ccc(C(=O)NC5CC5)cc4)cn23)cn1 . Fill in?
Reply: 5.11

---

- Tested on: Plasmodium berghei
- assay.info: Luciferase/luciferin-expressing antifolate-resistant parasites were used to infect a culture of HepG2 cells that were pre-incubated with compounds. Infected hepatocytes emit light due to the luciferase reaction. Assay results are presented as the percent inhibition of light emission compared to control. […]
- Type: functional
- particulars: sporozoite, PBLUC_HILL_SLOPE 2.83, PBLUC_R_SQUARED 0.42, read-out: LUCIFERASE INFECTION ASSAY - IC50
assay.readout: pIC50
Scale: negative log10 of molar concentration, which is what pIC50 denotes.

Ask: Item Cc1ccc(S(=O)(=O)Nc2ccc(Nc3nccn4c(-c5cccc(OC(F)(F)F)c5)cnc34)cc2)cc1 has what recorded pIC50?
Reply: 5.52

---

- System: Plasmodium berghei
- assay.info: Luciferase/luciferin-expressing antifolate-resistant parasites were used to infect a culture of HepG2 cells that were pre-incubated with compounds. Infected hepatocytes emit light due to the luciferase reaction. Assay results are presented as the percent inhibition of light emission compared to control. […]
- Format: functional
- particulars: sporozoite, FFLUC_HILL_SLOPE 11.3, FFLUC_R_SQUARED 0.831, read-out: LUCIFERASE INFECTION ASSAY - IC50
pIC50: −log10 of the molar value.
assay.readout: pIC50

Ask: Item N#C/C(=C\Nc1ncccn1)S(=O)(=O)c1ccccc1Cl has what recorded pIC50?
Reply: < 4.99

---

- Tested on: Plasmodium berghei
- assay.info: Luciferase/luciferin-expressing antifolate-resistant parasites were used to infect a culture of HepG2 cells that were pre-incubated with compounds. Infected hepatocytes emit light due to the luciferase reaction. Assay results are presented as the percent inhibition of light emission compared to control. […]
- Format: functional
- particulars: sporozoite, PBLUC_HILL_SLOPE 0.774, PBLUC_R_SQUARED 0.522, read-out: LUCIFERASE INFECTION ASSAY - IC50
assay.readout: pIC50
Scale: negative log10 of molar concentration, which is what pIC50 denotes.

Ask: Item O=C1OCCC1Sc1nc(-c2ccccc2)c(-c2ccccc2)o1 (stereo unspecified) has what recorded pIC50?
Reply: 5.38

---

- Test system: Plasmodium berghei
- assay.info: Luciferase/luciferin-expressing antifolate-resistant parasites were used to infect a culture of HepG2 cells that were pre-incubated with compounds. Infected hepatocytes emit light due to the luciferase reaction. Assay results are presented as the percent inhibition of light emission compared to control. […]
- Assay type: functional
- particulars: sporozoite, PBLUC_HILL_SLOPE 15.9, PBLUC_R_SQUARED 0.0512, read-out: LUCIFERASE INFECTION ASSAY - IC50
assay.readout: pIC50
Scale: negative log10 of molar concentration, which is what pIC50 denotes.

Ask: Missing value: pIC50, Plasmodium berghei, entry COc1ccc(COC(=O)c2sc3nc4n(c(=O)c3c2C)CCC4)cc1F . Fill in?
Reply: 5.03

---

- Test system: Plasmodium berghei
- assay.info: Luciferase/luciferin-expressing antifolate-resistant parasites were used to infect a culture of HepG2 cells that were pre-incubated with compounds. Infected hepatocytes emit light due to the luciferase reaction. Assay results are presented as the percent inhibition of light emission compared to control. […]
- Assay type: functional
- particulars: sporozoite, FFLUC_HILL_SLOPE 4.09, FFLUC_R_SQUARED 0.386, HEPG2TOX_HILL_SLOPE 1.27, HEPG2TOX_R_SQUARED 0.917, PBLUC_HILL_SLOPE 1.89, PBLUC_R_SQUARED 0.826, read-out: LUCIFERASE INFECTION ASSAY - IC50
assay.readout: pIC50
Scale: negative log10 of molar concentration, which is what pIC50 denotes.

Ask: Item Cc1ccc2c(CSc3nc(N)c(C#N)cc3C#N)cc(=O)oc2c1C has what recorded pIC50?
Reply: 6.04

---

- Test system: Plasmodium berghei
- assay.info: Luciferase/luciferin-expressing antifolate-resistant parasites were used to infect a culture of HepG2 cells that were pre-incubated with compounds. Infected hepatocytes emit light due to the luciferase reaction. Assay results are presented as the percent inhibition of light emission compared to control. […]
- Format: functional
- particulars: sporozoite, FFLUC_HILL_SLOPE 27.2, FFLUC_R_SQUARED 0.132, HEPG2TOX_HILL_SLOPE 6.02, HEPG2TOX_R_SQUARED 0.417, PBLUC_HILL_SLOPE 10.6, PBLUC_R_SQUARED 0.521, read-out: LUCIFERASE INFECTION ASSAY - IC50
assay.readout: IC50 (nM)
Note: unit nM is implicit; provide only the numeric part.

Ask: Item CN(C)c1ccc(C(c2ccc(OC(F)(F)F)cc2)c2ccc(N(C)C)cc2)cc1 has what recorded IC50?
Reply: 2890

---

- System: Plasmodium berghei
- assay.info: Luciferase/luciferin-expressing antifolate-resistant parasites were used to infect a culture of HepG2 cells that were pre-incubated with compounds. Infected hepatocytes emit light due to the luciferase reaction. Assay results are presented as the percent inhibition of light emission compared to control. […]
- Type: functional
- particulars: sporozoite, HEPG2TOX_HILL_SLOPE 5.67, HEPG2TOX_R_SQUARED 0.985, PBLUC_HILL_SLOPE 0.945, PBLUC_R_SQUARED 0.645, read-out: LUCIFERASE INFECTION ASSAY - IC50
assay.readout: pIC50
Scale: negative log10 of molar concentration, which is what pIC50 denotes.

Ask: Item CCN(CC)CCNC(=O)c1c(C)oc2c1C(=O)c1ccccc1C2=O has what recorded pIC50?
Reply: 6.95

---

- System: Plasmodium berghei
- assay.info: Luciferase/luciferin-expressing antifolate-resistant parasites were used to infect a culture of HepG2 cells that were pre-incubated with compounds. Infected hepatocytes emit light due to the luciferase reaction. Assay results are presented as the percent inhibition of light emission compared to control. […]
- Assay type: functional
- particulars: sporozoite, PBLUC_HILL_SLOPE 15, PBLUC_R_SQUARED 0.325, read-out: LUCIFERASE INFECTION ASSAY - IC50
assay.readout: pIC50
Scale: negative log10 of molar concentration, which is what pIC50 denotes.

Ask: Item O=C(c1cccc(F)c1)c1cnc(Nc2cccc(Br)c2)[nH]1 has what recorded pIC50?
Reply: 5.07

Values were extracted from ChEMBL document CHEMBL4483862.
